TARGET_SYSTEM: human CD33 A65S (human, UniProt P20138 18-364)
Sequence (P20138 18-364 A65S limits assumed): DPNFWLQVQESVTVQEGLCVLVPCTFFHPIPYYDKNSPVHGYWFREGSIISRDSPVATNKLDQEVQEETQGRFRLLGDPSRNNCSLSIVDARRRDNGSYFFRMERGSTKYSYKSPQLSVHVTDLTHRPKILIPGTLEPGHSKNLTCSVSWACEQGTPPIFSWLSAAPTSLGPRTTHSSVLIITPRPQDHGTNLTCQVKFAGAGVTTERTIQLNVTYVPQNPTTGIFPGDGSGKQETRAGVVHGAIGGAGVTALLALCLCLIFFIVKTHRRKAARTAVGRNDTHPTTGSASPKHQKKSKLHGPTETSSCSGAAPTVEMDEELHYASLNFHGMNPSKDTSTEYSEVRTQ
METHOD_NOTES: alanine scan, flow cytometry;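 also: HEK293-T cells transiently expressing single-residue alanine mutants of CD33 (alanine swapped to serine), antibody binding read by fluorescence in duplicate, background-subtracted, expressed relative to wild-type CD33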
PROPERTY: Mean % WT Binding

{"BINDER": "Refmab #1 (antibody, V domains shown, Full-length format is human IgG1 (Absolute Antibody Ab00283-10.0); The alanine scan used IgG or Fab; also called hP67.6) VH: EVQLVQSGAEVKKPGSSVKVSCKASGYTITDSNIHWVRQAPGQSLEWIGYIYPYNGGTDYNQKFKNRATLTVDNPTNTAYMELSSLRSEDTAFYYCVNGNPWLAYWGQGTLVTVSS VL: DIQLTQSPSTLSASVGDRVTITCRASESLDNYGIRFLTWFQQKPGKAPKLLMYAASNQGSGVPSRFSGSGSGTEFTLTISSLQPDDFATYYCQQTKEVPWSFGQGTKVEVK", "RESULT": "88.5 % WT"}
{"BINDER": "Refmab #3 (antibody, V domains shown, Full-length format is human IgG1 Fc silent (PG-LALA); The alanine scan used IgG or Fab) VH: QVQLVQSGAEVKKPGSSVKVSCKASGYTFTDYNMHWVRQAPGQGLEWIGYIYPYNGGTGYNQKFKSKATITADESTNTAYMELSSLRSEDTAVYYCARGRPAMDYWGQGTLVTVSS VL: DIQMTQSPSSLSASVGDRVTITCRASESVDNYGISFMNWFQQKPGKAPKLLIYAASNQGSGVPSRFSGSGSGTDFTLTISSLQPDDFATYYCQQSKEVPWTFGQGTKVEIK", "RESULT": "143 % WT"}
{"BINDER": "Refmab #4 (antibody, V domains shown, Full-length format is human IgG1 Fc silent (PG-LALA); The alanine scan used IgG or Fab) VH: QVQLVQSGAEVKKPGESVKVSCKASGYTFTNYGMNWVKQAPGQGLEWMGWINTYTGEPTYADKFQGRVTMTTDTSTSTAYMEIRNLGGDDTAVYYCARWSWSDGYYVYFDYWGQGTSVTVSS VL: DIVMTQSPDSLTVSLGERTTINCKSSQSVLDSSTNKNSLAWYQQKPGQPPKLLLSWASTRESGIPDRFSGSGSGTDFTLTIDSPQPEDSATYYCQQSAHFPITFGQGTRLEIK", "RESULT": "84 % WT"}
